Where these numbers come from: PubChem BioAssay

methodNotes: PSAC antagonists in infected red cells, primary screen, cell-based, P. falciparum Indochina, OD700, 2 h (AID 1155);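 further: lysis reports solute entry through the parasite surface anion channel PSAC; channel blockers reduce lysis of infected cells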
experimentalContext: P. falciparum Indochina infected erythrocytes, osmotic lysis OD700, called active from +8 up or from −8 down
Activity calls are given as the source filed them.
Write down the outcome that applies. Available outcomes: 1 for active, 0 for inactive

How did this test come out for CC(C)(C)OC(=O)CC[C@@]12N=C(c3ccc(OCCCO)cc3)O[C@@H]1c1ccccc1N(Cc1ccccc1)C2=O ? 1

How did this test come out for COc1c(C)cc(-c2cc3c(c(CCc4ccccc4)n2)[Si](C(C)C)(C(C)C)OC3)cc1C ? 0

How did this test come out for CC(C)[C@@H](C(=O)O)n1cc(-c2ccccn2)nn1 ? 0

How did this test come out for C=C[C@H](OC)[C@@H](OC(=O)Nc1ccc(OC)cc1)c1ccc(OC)c(O)c1 ? 0

How did this test come out for COCCOC(=O)N1C(=O)[C@@]2(c3cc(C#CC4(O)CCCCCC4)ccc31)[C@H](c1ccccc1OCCO)N1[C@H](c3ccccc3)[C@H](c3ccccc3)OC(=O)[C@H]1[C@@H]2C(=O)Nc1nc2ccccc2s1 ? 0

How did this test come out for C[C@@H](OCc1ccccc1)C1NC(=O)[C@@]23C(=O)N[C@@H](Cc4ccccc4)C2[C@H](C)[C@@]2(C)O[C@H]2C3/C=C/C/C=C\CNC(=O)[C@@H]2CCCN2C1=O (stereo partly drawn) ? 0

How did this test come out for O=C(N1CCCCC1)[C@@]1(Cc2ccccc2)N=C(c2ccc(OCCCO)cc2)O[C@H]1c1ccccc1 ? 0

How did this test come out for C=C(CCCC)/C(=C/C[C@@H](OC(=O)c1ccncc1)c1ccc(OCCO)cc1)c1cnc2ccccc2c1 ? 1

How did this test come out for CC(C)C(CO)N1C(=O)[C@@H]2[C@H]3C(=O)OCC=C[C@H]3OC23C=CCN(Cc2ccccc2)C(=O)[C@@H]13 (stereo partly drawn) ? 0

How did this test come out for CCN(CC)c1ccc(N2CC=CC34O[C@@H]5C=CCOC(=O)[C@@H]5[C@H]3C(=O)N(C(CO)C(C)C)[C@@H]4C2=O)cc1 (stereo partly drawn) ? 0

How did this test come out for COCCCNC(=O)[C@@]1(CCS(=O)(=O)c2ccccc2)N=C(c2ccc(OCCCO)cc2)O[C@H]1c1ccccc1CN=[N+]=[N-] ? 0

How did this test come out for COCCOC(=O)N1C(=O)[C@@]2(c3ccccc31)[C@H](C(=O)Nc1nc3ccccc3s1)[C@H]1C(=O)O[C@H](c3ccccc3)[C@H](c3ccccc3)N1[C@@H]2c1ccc(O)cc1 ? 0

How did this test come out for CC(C)(C)OC(=O)CC[C@]1(C(=O)NCc2ccccc2)N=C(c2ccc(OCCCO)cc2)O[C@H]1c1ccccc1N=[N+]=[N-] ? 1

---

Would you kindly list composite z-score for each of these compounds?
Test system: Neuregulin-1 EGF-like domain
methodNotes: binders of neuregulin-1 EGF-like domain, primary screen, biochemical, small-molecule microarray, 635 nm fluorescence (AID 1081);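 further: binding of the protein to compounds printed on small-molecule microarray slides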
experimentalContext: small-molecule microarray binding, higher = more signal
Write no unit; give the number alone.

Form entry - test system: Neuregulin-1 EGF-like domain; read-out: composite z-score; compound: COCCOC(=O)N1C(=O)[C@@]2(c3cc(C#CC4(O)CCCCCC4)ccc31)[C@H](c1ccc(O)cc1)N1[C@H](c3ccccc3)[C@H](c3ccccc3)OC(=O)[C@H]1[C@@H]2C(N)=O 0.874

Form entry - test system: Neuregulin-1 EGF-like domain; read-out: composite z-score; compound: COCCOC(=O)N1C(=O)[C@@]2(c3ccccc31)[C@H](C(=O)Nc1nc3ccccc3s1)[C@H]1C(=O)O[C@H](c3ccccc3)[C@H](c3ccccc3)N1[C@@H]2c1ccc(O)cc1 1.28

Form entry - test system: Neuregulin-1 EGF-like domain; read-out: composite z-score; compound: C=C(C(=O)CC[C@@H](OC(C)=O)c1ccccc1OCCO)C(C)C -0.29

---

targetOrSystem: Torsin-1A-interacting protein 2 (Homo sapiens) (UniProt Q8NFQ8)
Sequence (Q8NFQ8 whole entry, looked up): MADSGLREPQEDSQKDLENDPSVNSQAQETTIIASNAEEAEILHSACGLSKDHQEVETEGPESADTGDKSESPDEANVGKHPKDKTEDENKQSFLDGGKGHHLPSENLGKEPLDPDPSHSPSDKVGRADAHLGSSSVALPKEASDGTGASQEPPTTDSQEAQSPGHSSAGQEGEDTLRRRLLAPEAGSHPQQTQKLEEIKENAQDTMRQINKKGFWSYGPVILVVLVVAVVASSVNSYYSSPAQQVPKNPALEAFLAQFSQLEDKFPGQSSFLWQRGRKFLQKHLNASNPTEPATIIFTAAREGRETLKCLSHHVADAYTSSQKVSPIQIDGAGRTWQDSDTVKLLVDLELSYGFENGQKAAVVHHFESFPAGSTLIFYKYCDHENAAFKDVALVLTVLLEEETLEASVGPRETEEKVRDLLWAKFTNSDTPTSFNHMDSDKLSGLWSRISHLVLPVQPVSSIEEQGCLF
methodNotes: LULL1 binders on small-molecule microarray, primary screen, cell lysate, human LULL1 lysate, 635/667 nm fluorescence (AID 1092);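 further: probe is lysate of COS7 cells overexpressing human LULL1; score merges per-feature 667 nm fluorescence with signal-to-noise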
experimentalContext: hLULL1 lysate binding, 635 nm fluorescence, higher = more signal
Would you kindly list composite z-score for each of these molecules?
Write no unit; give the number alone.

Form entry - test system: Torsin-1A-interacting protein 2 (Homo sapiens) (UniProt Q8NFQ8); read-out: composite z-score; molecule: O=C(NCc1ccccc1)[C@@H]1c2ccccc2C(=O)N(Cc2ccccc2Cl)[C@H]1c1ccc(CO)cc1 2.69

Form entry - test system: Torsin-1A-interacting protein 2 (Homo sapiens) (UniProt Q8NFQ8); read-out: composite z-score; molecule: CC(C)CNC(=O)[C@@H]1c2ccccc2C(=O)N(Cc2ccc(OC(F)(F)F)cc2)[C@H]1c1ccc(CO)cc1 3.01

Form entry - test system: Torsin-1A-interacting protein 2 (Homo sapiens) (UniProt Q8NFQ8); read-out: composite z-score; molecule: C=C(C1=CCN(S(=O)(=O)c2ccc(C)cc2)C1)[C@@H](OC(C)=O)[C@@H]1CCCN1S(=O)(=O)c1ccccc1[N+](=O)[O-] 1.2

Form entry - test system: Torsin-1A-interacting protein 2 (Homo sapiens) (UniProt Q8NFQ8); read-out: composite z-score; molecule: C=CCC(OC(C)=O)[C@@H]1[C@@H](N(Cc2cc3ccccc3o2)C(=O)c2ccc(-c3ccccc3)cc2)c2cc(OCCCO)ccc2N1C(=O)c1ccc(-c2ccccc2)cc1 (some centres not stated) 0.94

Form entry - test system: Torsin-1A-interacting protein 2 (Homo sapiens) (UniProt Q8NFQ8); read-out: composite z-score; molecule: O=C(NC1CC1)[C@@H]1c2ccccc2C(=O)N(Cc2ccccc2C(F)(F)F)[C@H]1c1ccc(CO)cc1 2.27

Form entry - test system: Torsin-1A-interacting protein 2 (Homo sapiens) (UniProt Q8NFQ8); read-out: composite z-score; molecule: CCCNC(=O)[C@@H]1c2ccccc2C(=O)N(Cc2cc(C(F)(F)F)cc(C(F)(F)F)c2)[C@H]1c1ccc(CO)cc1 1.34

Form entry - test system: Torsin-1A-interacting protein 2 (Homo sapiens) (UniProt Q8NFQ8); read-out: composite z-score; molecule: C=CCNC(=O)[C@@H]1[C@H]2C(=O)O[C@H](c3ccccc3)[C@H](c3ccccc3)N2[C@H](c2ccc(O)cc2)[C@@]12C(=O)N(C(=O)OCCOC)c1ccc(C#Cc3ccc(OC)cc3)cc12 2.08

---

Would you kindly list composite z-score for each of these compounds?
System: Neuregulin-1 EGF-like domain
methodNotes: binders of neuregulin-1 EGF-like domain, primary screen, biochemical, small-molecule microarray, 635 nm fluorescence (AID 1081);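 further: binding of the protein to compounds printed on small-molecule microarray slides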
experimentalContext: small-molecule microarray binding, higher = more signal
Write no unit; give the number alone.

Given the compound CC(C)N1CC=CC23O[C@@H]4/C=C\CCCOC(=O)C4[C@H]2C(=O)N(CCCO)[C@@H]3C1=O (stereo partly specified) , what is its reported composite z-score? 1.14

Given the compound COCCCNC(=O)[C@@]1(Cc2ccccc2CN=[N+]=[N-])COC(c2ccc(OCCCO)cc2)=N1 , what is its reported composite z-score? 1.28

Given the compound C#CCN1C(C(=O)OCC)OC[C@H]1c1ccccc1 (stereo partly specified) , what is its reported composite z-score? -0.143

Given the compound COc1ccc([Si](C)(C)[C@H]2[C@H](CC(=O)N(CCO)Cc3ccccc3)O[C@@]3(C(=O)N(Cc4cccc(N5C(=O)COc6ccccc65)c4)c4ccccc43)[C@@H]2C)cc1 , what is its reported composite z-score? 1.27

Given the compound CCCNC(=O)[C@@H]1c2ccccc2C(=O)N(Cc2cc(C(F)(F)F)cc(C(F)(F)F)c2)[C@H]1c1ccc(CO)cc1 , what is its reported composite z-score? 1.2

Given the compound CO[C@H]1O[C@H](CO)[C@@H](OC(=O)Nc2ccccc2)[C@H](OC(=O)Nc2ccccc2-c2ccccc2)[C@@H]1OC(=O)Nc1ccccc1-c1ccccc1 , what is its reported composite z-score? 1.31

Given the compound C=CCOC(=O)[C@H]1[C@@H]2C(=O)O[C@@H](c3ccccc3)[C@@H](c3ccccc3)N2[C@@H](c2ccc(OCCOC(=O)[C@H]3C[C@H]4C(=O)N5CCC[C@H]5C(=O)N4[C@H]3c3cccc(OCCO)c3)cc2)[C@]12C(=O)Nc1ccccc12 , what is its reported composite z-score? 1.24

Given the compound CC(C)C(=C=CC[C@H](O)c1ccc(OCCO)cc1)C[C@H](O)COCc1ccccc1 , what is its reported composite z-score? 1.09

Given the compound COCCCNC(=O)[C@@]1(CCS(=O)(=O)c2ccccc2)N=C(c2ccc(OCCCO)cc2)O[C@H]1c1ccccc1CN=[N+]=[N-] , what is its reported composite z-score? 1.22

Given the compound CCCC[C@@H](O)C1=C(C)C[C@H]2C(=O)N(C)C(=O)[C@H]2[C@H]1CO , what is its reported composite z-score? -0.0165

Given the compound NCCCCCCNC(=O)[C@@H]1C[C@@H]2C(=O)N[C@@H](Cc3ccccc3)C(=O)N2[C@@H]1c1ccc(O)cc1 , what is its reported composite z-score? 1.33

Given the compound CC(C)C[C@@H]1NC(=O)[C@@]23C(=O)N[C@@H](Cc4ccccc4)C2[C@H](C)[C@@]2(C)O[C@H]2C3/C=C/CC/C=C/CNC(=O)[C@@H](C)NC1=O (stereo partly specified) , what is its reported composite z-score? 0.635

Given the compound O=C1c2ccccc2[C@@]2(Cc3ccccc3N(CC(F)(F)F)C2=O)[C@H](c2ccc(CO)cc2)N1Cc1ccccc1C(F)(F)F , what is its reported composite z-score? -1.2

Given the compound [N-]=[N+]=NCc1ccccc1C[C@@]1(C(=O)O)N=C(c2ccc(OCCCO)cc2)O[C@@H]1c1ccccc1 , what is its reported composite z-score? 0.754

Given the compound CC(C)C[C@@H]1NC(=O)[C@@]23C(=O)N[C@@H](Cc4ccccc4)C2[C@H](C)[C@@]2(C)O[C@H]2C3/C=C/C/C=C\CNC(=O)[C@H](Cc2ccccc2)NC1=O (stereo partly specified) , what is its reported composite z-score? 0.897

Given the compound C=CCC(OC(C)=O)[C@@H]1[C@@H](N(Cc2cc3ccccc3o2)C(=O)c2ccc(-c3ccccc3)cc2)c2cc(OCCCO)ccc2N1C(=O)c1ccc(-c2ccccc2)cc1 (stereo partly specified) , what is its reported composite z-score? -0.714

Given the compound C=CCN1C(=O)[C@]2(O[C@H](CCn3cc([C@H](O)c4ccccc4)nn3)[C@@H]([Si](C)(C)c3ccc(OC)cc3)[C@@H]2C)c2cc(N3CCOC3=O)ccc21 , what is its reported composite z-score? 1.16

Given the compound CO[C@H]1O[C@H](CO)[C@@H](OC(=O)Nc2ccccc2)[C@H](OC(=O)Nc2ccc3c(c2)OCO3)[C@H]1OC(=O)Nc1ccc2c(c1)OCO2 , what is its reported composite z-score? 1.23

Given the compound COCCOC(=O)N1C(=O)[C@@]2(c3cc(C#CC4(O)CCCCCC4)ccc31)[C@H](C(=O)NC[C@H](O)c1ccccc1)[C@H]1C(=O)O[C@H](c3ccccc3)[C@H](c3ccccc3)N1[C@@H]2c1ccccc1OCCO , what is its reported composite z-score? 1.23

Given the compound COCCOC(=O)N1C(=O)[C@@]2(c3cc(C#CCNC(N)=O)ccc31)[C@H](C(=O)NC[C@H](O)c1ccccc1)[C@H]1C(=O)O[C@H](c3ccccc3)[C@H](c3ccccc3)N1[C@@H]2c1ccc(O)cc1 , what is its reported composite z-score? 0.442

Given the compound CC(C)NC(=O)[C@@H]1c2ccccc2C(=O)N(Cc2cc(F)cc(C(F)(F)F)c2)[C@H]1c1ccc(CO)cc1 , what is its reported composite z-score? 0.844

Given the compound COc1ccc([Si](C)(C)[C@H]2[C@H](CCO)O[C@@]3(C(=O)N(Cc4ccc(N5C(=O)c6cccc7cccc5c67)cc4)c4ccccc43)[C@@H]2C)cc1 , what is its reported composite z-score? 0.657

Given the compound [N-]=[N+]=NCc1ccccc1C[C@]1(C(=O)NCc2ccccc2)N=C(c2ccc(OCCCO)cc2)O[C@H]1c1ccccc1 , what is its reported composite z-score? 0.97

Given the compound CC(C)C[C@@H]1NC(=O)[C@@H]2C[C@H](C(=O)NCCCCCNC(=O)CS)[C@H](c3cccc(OCCO)c3)N2C1=O , what is its reported composite z-score? 1.29

Given the compound CO[C@H]1O[C@H](CO)[C@@H](OC(=O)CCc2ccccc2)[C@@H]2OC(=O)[C@H](Cc3ccccc3)C/C=C/C[C@@H](Cc3ccccc3)C(=O)O[C@@H]12 , what is its reported composite z-score? 1.14

Given the compound C=CCNC(=O)[C@H]1[C@@H]2C(=O)O[C@@H](c3ccccc3)[C@@H](c3ccccc3)N2[C@@H](c2ccccc2OCCO)[C@]12C(=O)N(C(=O)OCCOC)c1ccc(C#CCCO)cc12 , what is its reported composite z-score? 1.11
